System: MDA-MB-468 breast
PROCEDURE_TEXT: NCI tumour cell line growth inhibition, 48 h; in the data active = GI50 below about 0.43 µM; inactive = the rest
Possible outcomes: Y (active), N (inactive)

compound=Cn1cc(C2=C(c3cn(CCCO)c4ccccc34)C(=O)NC2=O)c2ccccc21 assigned_class=N
compound=Cc1nc2cc(-n3c(-c4ccc(F)cc4)nc4ccccc4c3=O)ccc2n1Cc1ccccc1 assigned_class=N
compound="Nc1nc(N)c2cc(CNc3ccc(C(=O)NC(CC(=O)O)C(=O)O)cc3)ccc2n1 (centres undefined)" assigned_class=N
compound="COc1ccc(/C=N/C2=C(C#N)C(c3ccccc3)c3c(ccc4ccccc34)O2)cc1 (centres undefined)" assigned_class=N
compound=CN([O-])c1nc(N(C)[O-])nc(N2CCOCC2)n1.CN([O-])c1nc(N(C)[OH2+])nc(N2CCOCC2)n1.[Fe+3] assigned_class=N
compound="CC(Nc1c(C#N)cnc2ccc(-c3cnc(N)nc3)cc12)c1ccccc1 (centres undefined)" assigned_class=Y
compound=NC(=O)c1cccc(N2Cc3ccccc3OC3=C2C(=O)c2c(O)ccc(O)c2C3=O)c1 assigned_class=Y
compound=CC(C)c1sc(NC(=O)c2cc(NC(=O)c3cc(NC(=O)c4cscn4)cn3C)cn2C)nc1C(=O)NCCCN(C)C assigned_class=N
compound=O=C(Nc1cccc(-c2cccc(F)c2)c1)C1CCN(Cc2cccc3cccnc23)CC1 assigned_class=N

Where do the numbers come from? From PubChem BioAssay (NCI).
